tested on: M14 melanoma; assay: NCI-60 one-dose screen, 48 h (100 = growth as untreated, 0 = no growth, -100 = all killed); settings: 10 µM unless noted
This is part of a sample that, as a whole, favours compounds with a hit. Of some 83,000 tested, about 20% had one in any assay.
property name: growth (%)
Give bare numbers, in %.

// solved cases for growth follow
COc1ccc(C2C3=C(COC3=O)N(CCO)c3cc4c(cc32)OCCO4)cc1OC (stereo unspecified): 13.6
COC(=O)C1=C(C(=O)Nc2cccnc2)C2OC1(C(Cc1ccccc1)Oc1ccccc1)C1OC21 (stereo unspecified): 11.7
c1ccc(CNc2ccc3nc(CCC4CCCCC4)[nH]c3c2)cc1: 76.2
Cc1cccc(NC(=O)CSc2nc3ccc([N+](=O)[O-])cc3[nH]2)c1: 79.9

List growth for every entry below, keeping the order given.
1. Cc1ccc(S(=O)(=O)n2cc(C3C(Cl)C(=O)N3c3ccc(N4CCOCC4=O)cc3)c3ccccc32)cc1 (stereo unspecified)
2. COc1ncc2cc1NS(=O)(=O)c1cccc(c1)C(=O)NCC1=CC=C(S1)c1ncnc3c1SC2=C3C
3. CC(CN)[C@@H]1CC[C@]2(CO)CC[C@]3(C)[C@H](CC[C@@H]4[C@@]5(C)CCC(N)C(C)(C)[C@@H]5CC[C@]43C)[C@@H]12 (stereo partly specified)
4. CCCCCCCCCCCCCCCCCCOc1ccccc1CC(=O)OCC[N+]1(C)CCOCC1
5. N#C/C(=C\c1ccc(Cl)cc1Cl)C(=O)Nc1ncc(Cc2ccc(Cl)c(Cl)c2)s1
6. COc1ccc(OC)c(Nc2nnc(-c3ccc(Cl)cc3)o2)c1
7. CCOC(=O)c1c(-c2ccccc2)n2c(=O)cc(C)c3c(O)c(O)cc1c32
8. CCN(CC)CCCNCc1cc(-c2ccccc2)nc2cc(Cl)ccc12

25.7
-43.9
11.8
69.9
53.8
93.1
66.2
-95.3

###

test system: NCI-H322M lung; assay: NCI-60 one-dose screen, 48 h; conditions: 10 µM unless noted
About 83,000 compounds went through this panel and 20% of them were active in at least one assay; those are over-represented in the sample as a whole. Calls of active or inactive are those of the source. Rule for the calls: active = growth percent below 10; inactive = the rest.
Hi there, use one of these labels in your reply, thanks! Y = active, N = inactive

GET /call?item= N#C/C(=C\c1ccc(-c2ccc(Cl)cc2)o1)c1ccc(Cl)cc1 returns the recorded outcome of this test.
N

What do you get for COc1ccc(NC(=O)c2ccc(C(=O)Nc3ccc(OC)cc3OC)cc2)c(OC)c1 ?
N

###

system: SN12C renal; test: NCI-60 one-dose screen, 48 h; settings: 10 µM unless noted
This is part of a sample that, as a whole, favours compounds with a hit. Of some 83,000 tested, about 20% had one in any assay. Activity calls are given as the source filed them. The calls were made as follows: active = growth percent below 10; inactive = the rest.
Hi there, use one of these labels in your reply, thanks! active, inactive

Record excerpt, results attached:
CC(C)CCSc1nc(Nc2ccccc2)c(C#N)c(-c2ccccc2)n1: inactive
NS(=O)(=O)c1ccc(N/C=C/C(=O)c2cc3ccccc3oc2=O)cc1: inactive

Recorded call for C=C1C(=O)O[C@H]2[C@H]1CC/C(COC(=O)c1cc3cc(F)ccc3[nH]1)=C\CC[C@@]1(C)O[C@@H]21 ?
active

Could you do the same for CC1(C)CC[C@]2(C(=O)O)CC[C@]3(C)C(=CC[C@@H]4[C@@]5(C)C[C@@H](Cc6cn([C@@H]7O[C@H](CO)[C@@H](O)[C@H](O)[C@H]7O)nn6)[C@H](O)C(C)(C)[C@@H]5CC[C@]43C)[C@@H]2C1 , please?
inactive

Same question for C=CCn1c(SCC(=O)Nc2ccc(C(=O)/C=C/c3cc(OC)c(OC)c(OC)c3)cc2)nnc1-c1cc(-c2ccc(OC)cc2)nc2ccccc12 please.
inactive

Then this compound: CC1O[C@@H]2C[C@@](O)([C@H]1O)n1c3ccccc3c3c4c(c5c6ccccc6n2c5c31)C(=O)NC4=O (some centres undefined)
inactive

Quick one: COc1cc(/C=C2\C(=O)N(c3c(Cl)cccc3Cl)c3ccccc32)cc(OC)c1OCCCCCCn1c2ccccc2c(=O)c2ccccc21
inactive

And for CCOC(=O)c1c(C)c2c(n1C)CSc1cc(S(=O)(=O)c3ccccc3)c(=O)[nH]c1-2 ?
inactive

Could you do the same for COc1ccc2cc(Cn3cc[n+](Cc4ccc5ccccc5c4)c3)ccc2c1 , please?
inactive

Then O=C1CCC(C(=O)NN(c2ccccc2)c2ccccc2)N1 (centres undefined) ?
inactive

Can you check CC1(C)C2CC=C(/C=N/NC(=O)C3CCC(=O)N3)C1C2 (centres undefined) next?
inactive

Now this one: Clc1ccc(-c2nc(-c3c[nH]c4ncccc34)cs2)cc1
inactive

Follow-up item: O=C(Nc1ccc(F)cc1)Nc1ccccc1CNc1nc(Nc2ccc(OCCN3CCCC3)cc2)ncc1Cl
active

Record: CCCCCCCCNc1cc2c3c(c1)CCCN3CCC2
active

All values here come from PubChem BioAssay (NCI).
